# system tested: melanocortin-5 receptor (human, UniProt P33032 1-325)
# Sequence (P33032 whole entry): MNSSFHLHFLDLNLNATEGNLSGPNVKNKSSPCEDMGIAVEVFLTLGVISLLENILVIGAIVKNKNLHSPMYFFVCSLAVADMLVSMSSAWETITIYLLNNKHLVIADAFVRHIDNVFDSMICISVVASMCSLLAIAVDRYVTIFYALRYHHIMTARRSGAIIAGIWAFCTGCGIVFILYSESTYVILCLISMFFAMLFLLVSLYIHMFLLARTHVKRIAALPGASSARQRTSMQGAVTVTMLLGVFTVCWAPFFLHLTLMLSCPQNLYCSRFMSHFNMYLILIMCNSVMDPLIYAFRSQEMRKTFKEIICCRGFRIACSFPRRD
# protocol notes: cell-based or functional assay
Bridge positions count the residues as written; N and C are the ends. Square brackets hold non-standard residues; d marks the D form. dPhe(4-F) = N[C@H](Cc1ccc(F)cc1)C(=O)O; hCys = N[C@@H](CCS)C(=O)O
quantity kind: cAMP Assay (EC-50) (nM)
One number for each entry, in nM.

Worked cases, answers included:
Ac-RC[dV]H[dF]RWC-NH2 (disulfide 2-8) [Ac-Arg-cyclo[Cys-D-Val-His-D-Phe-Arg-Trp-Cys]-NH2] : 782
Ac-RC[dL]H[dF]RWC-NH2 (disulfide 2-8) [Ac-Arg-cyclo[Cys-D-Leu-His-D-Phe-Arg-Trp-Cys]-NH2] : 91
Ac-RC[dA]P[dF]RWC-NH2 (disulfide 2-8; SMILES CC(=O)N[C@@H](CCCNC(=N)N)C(=O)N[C@H]1CSSC[C@@H](C(N)=O)NC(=O)[C@H](Cc2c[nH]c3ccccc23)NC(=O)[C@H](CCCNC(=N)N)NC(=O)[C@@H](Cc2ccccc2)NC(=O)[C@@H]2CCCN2C(=O)[C@@H](C)NC1=O) [Ac-Arg-cyclo[Cys-D-Ala-Pro-D-Phe-Arg-Trp-Cys]-NH2] : 707
Ac-ECAH[dF]RWC-NH2 (disulfide 2-8; SMILES CC(=O)N[C@@H](CCC(=O)O)C(=O)N[C@H]1CSSC[C@@H](C(N)=O)NC(=O)[C@H](Cc2c[nH]c3ccccc23)NC(=O)[C@H](CCCNC(=N)N)NC(=O)[C@@H](Cc2ccccc2)NC(=O)[C@H](Cc2c[nH]cn2)NC(=O)[C@H](C)NC1=O) [Ac-Glu-cyclo[Cys-Ala-His-D-Phe-Arg-Trp-Cys]-NH2] : 1280
Ac-RC[dA]P[dPhe(4-F)]RWC-NH2 (disulfide 2-8; SMILES CC(=O)N[C@@H](CCCNC(=N)N)C(=O)N[C@H]1CSSC[C@@H](C(N)=O)NC(=O)[C@H](Cc2c[nH]c3ccccc23)NC(=O)[C@H](CCCNC(=N)N)NC(=O)[C@@H](Cc2ccc(F)cc2)NC(=O)[C@@H]2CCCN2C(=O)[C@@H](C)NC1=O) [Ac-Arg-cyclo[Cys-D-Ala-Pro-D-Phe(p-F)-Arg-Trp-Cys]-NH2] : 283

Pending binder:
Exercise: Quick one: cAMP Assay (EC-50) for Ac-R[hCys]A[dF]RWC-NH2 (disulfide 2-7; SMILES CC(=O)N[C@@H](CCCNC(=N)N)C(=O)N[C@H]1CCSSC[C@@H](C(N)=O)NC(=O)[C@H](Cc2c[nH]c3ccccc23)NC(=O)[C@H](CCCNC(=N)N)NC(=O)[C@@H](Cc2ccccc2)NC(=O)[C@H](C)NC1=O) [Ac-Arg-cyclo[hCys-Ala-D-Phe-Arg-Trp-Cys]-NH2] ?
Key: 42
